Test: Solution stability, accelerated stress test
Assay type: physicochemical
Conditions: 25° C., loss of 10% compound (T90); extrapolated from 75° C., 14 days, pH 5 0.025 M sodium citrate buffer, HPLC
Each entry below carries its reported Predicted Shelf Life.
Quick note: give the figure in months, leave out the unit.

CCC(=O)Oc1ccc2[nH]cc(CC(C)N)c2c1 (centres unmarked) = 1.32

Prompt: Value lookup for Predicted Shelf Life; key = CC(N)Cc1c[nH]c2ccc(OC(=O)C(C)(C)C)cc12 (centres unmarked)
Response: 11.3

Prompt: Value lookup for Predicted Shelf Life; key = CC(N)Cc1c[nH]c2ccc(O)cc12 (centres unmarked)
Response: 2.6

Prompt: Value lookup for Predicted Shelf Life; key = CC(N)Cc1c[nH]c2ccc(OC(=O)C(C)C)cc12 (centres unmarked)
Response: 3.36

Prompt: Value lookup for Predicted Shelf Life; key = CC(N)Cc1c[nH]c2ccc(OC(=O)C3CC3)cc12 (centres unmarked)
Response: 5.81
